Examples of molecules with documented Inf. D: Candida parapsilosis B66126, pIC50 follow.
# Tested on: Candida parapsilosis
# test description: Antifungal activity in vitro, resazurin growth inhibition: Candida parapsilosis (B66126)
# Format: cell-based

| molecule | result |
| --- | --- |
| COc1cccc2cc(C3NCc4ccc(Cl)cc4-n4cccc43)oc12.Cl (racemic) [Compound 42] | <4.19 |
| Cl.FC(F)(F)c1ccc(C2NCc3c(Cl)cc(Cl)cc3-n3cccc32)cn1 (racemic) [Compound 19] | <4.19 |
| Clc1cccc2c1CNC(c1ccccn1)c1cccn1-2 (racemic) [Compound 11] | <4.19 |

Now look at this one.
The reported Inf. D: Candida parapsilosis B66126, pIC50 of the molecule Clc1cc2cc(C3=NCc4c(Cl)cccc4-n4cccc43)ccc2o1 [Compound 155] was 4.94

====

Reported Inf. H: Scedosporium apiospermum IHEM3817, pIC50 values for a set of molecules
# System: Scedosporium apiospermum
# test description: Antifungal activity in vitro, resazurin growth inhibition: Scedosporium apiospermum (IHEM3817)
# Format: cell-based
Answer field: number only, no words.

The molecule listed as Cc1cccc2c1CN=C(c1cc3ccccc3o1)c1cccn1-2 shows Inf. H: Scedosporium apiospermum IHEM3817, pIC50 equal to 6.22

====

# System: Trichophyton mentagrophytes
# test description: Antifungal activity in vitro, resazurin growth inhibition: Trichophyton mentagrophytes (B70554)
# Type: cell-based
# Procedure: The standard susceptibility screen is performed in 96-well plates (U-bottom, Greiner Bio-One). Serial dilutions (2-fold or 4-fold) of 20 mM compound stock solutions are made in 100% DMSO, followed by an intermediate dilution step in water. These serial dilutions (10 μl) are then spotted onto test-plates that can be stored in the dark at 4° C. for a maximum period of 2 weeks. An adequate broad dose-range is included with 64 μM as the highest in-test concentration. […]
measurement name: Inf. G: Trichophyton mentagrophytes B70554, pIC50
Lab note: jot down the number only; don't add units.

Take a look at these entries with their results.
| compound | numeric value |
| --- | --- |
| Clc1cccc2c1CN=C(c1ccc3nsnc3c1)c1cccn1-2 [Compound 194] | 6.06 |
| Cn1nc2ccc(C3=NCc4c(Cl)cc(Cl)cc4-n4cccc43)cc2n1 [Compound 109] | 4.37 |
| Fc1cc(F)c2c(c1)-n1cccc1C(c1cc3cc(Cl)cnc3o1)=NC2 [Compound 158] | 5.17 |

For the next question, use this compound.
Sample Cc1cccc2c1-n1cccc1C(c1cc3ccccc3o1)NC2.Cl (racemic) [Compound 33] ; Inf. G: Trichophyton mentagrophytes B70554, pIC50 observed: 4.98

====

# Test system: Trichophyton rubrum
# test description: Antifungal activity in vitro, resazurin growth inhibition: Trichophyton rubrum (B68183)
# Format: cell-based
Classification field: criterion met = Inf. C: Trichophyton rubrum B68183, pIC50 at or over 6; criterion not met = Inf. C: Trichophyton rubrum B68183, pIC50 under 6.

| compound | qualitative label |
| --- | --- |
| CCc1nc(C2=NCc3c(Cl)cccc3-n3cccc32)cs1 | criterion not met |
| CCc1ccc(C2NCc3c(Cl)cccc3-n3cccc32)cn1.Cl (racemic) | criterion not met |
| Fc1ccc2oc(C3=NCc4c(Cl)cc(Cl)cc4-n4cccc43)cc2c1 | criterion not met |

input: API: above_or_equal(metric=Inf. C: Trichophyton rubrum B68183, pIC50, cutoff=6) for item Fc1cccc2c1CN=C(c1ccc3sc(C(F)(F)F)nc3c1)c1cccn1-2
output: criterion not met

input: Has Cc1cccc2oc(C3=NCc4c(Cl)cccc4-n4cccc43)cc12 a recorded Inf. C: Trichophyton rubrum B68183, pIC50 greater than or equal to 6?
output: criterion not met

====

# Tested on: Scedosporium apiospermum
# test description: Antifungal activity in vitro, resazurin growth inhibition: Scedosporium apiospermum (IHEM3817)
# Format: cell-based
Measured Inf. H: Scedosporium apiospermum IHEM3817, pIC50 by item
Number, no unit, nothing else.

Consider the following illustrative entries.
| structure smiles | target | numeric value |
| --- | --- | --- |
| CC(F)(F)c1ccc(C2=NCc3c(Cl)cccc3-n3cccc32)cn1 | Scedosporium apiospermum | 6.01 |
| Clc1cccc2c1CN=C(c1cnc3c(c1)CCC3)c1cccn1-2 | Scedosporium apiospermum | 7.52 |
| Cn1nnc2ccc(C3=NCc4c(Cl)cccc4-n4cccc43)cc21 | Scedosporium apiospermum | 4.77 |
| Cc1cccc2cc(C3=NCc4ccccc4-n4cccc43)oc12 | Scedosporium apiospermum | 6.01 |
| Cc1cccc2c1CN=C(c1ccc(C(F)(F)F)nc1)c1cccn1-2 | Scedosporium apiospermum | 5.28 |

Reported Inf. H: Scedosporium apiospermum IHEM3817, pIC50 ( Cn1ccc2cc(C3=NCc4c(Cl)cc(Cl)cc4-n4cccc43)ccc21 ) = 4.90

====

The molecules listed here are annotated with their Inf. G: Trichophyton mentagrophytes B70554, pIC50.
# System: Trichophyton mentagrophytes
# test description: Antifungal activity in vitro, resazurin growth inhibition: Trichophyton mentagrophytes (B70554)
# Type: cell-based
Would you mind answering with just the numeric figure?

| molecule | numeric value |
| --- | --- |
| Cc1cccc2cc(C3=NCc4ccccc4-n4cccc43)oc12 | 6.79 |
| CCc1ccc(C2NCc3c(Cl)cccc3-n3cccc32)nc1.Cl (racemic) | 5.00 |
| Fc1ccc2oc(C3NCc4c(Cl)cccc4-n4cccc43)cc2c1 (racemic) | 5.08 |

Looking up Br.Clc1ccc2c(c1)-n1cccc1C(c1ccncc1)NC2 (racemic) , I found its Inf. G: Trichophyton mentagrophytes B70554, pIC50 recorded as 4.39

====

# maps each entry to its Inf. A: Sporothrix schenkii B62482, pIC50
# Test system: Sporothrix schenkii
# test description: Antifungal activity in vitro, resazurin growth inhibition: Sporothrix schenkii (B62482)
# Format: cell-based
Would you mind answering with just the numeric figure?

See these solved cases before continuing.
| compound | numeric value |
| --- | --- |
| Fc1cccc2c1CN=C(c1ccc3sccc3c1)c1cccn1-2 [Compound 175] | 5.70 |
| Clc1cc(Cl)c2c(c1)-n1cccc1C(c1ccc3ncsc3c1)=NC2 [Compound 187] | 5.09 |
| Clc1ccc2c(c1)-n1cccc1C(c1cc3ccccc3s1)=NC2 [Compound 166] | 5.52 |
| Cn1nnc2ccc(C3=NCc4c(Cl)cc(Cl)cc4-n4cccc43)cc21 [Compound 111] | 4.41 |
| Cc1cccc2c1CN=C(c1cc3cccc(C)c3o1)c1cccn1-2 [Compound 131] | 5.51 |
| Clc1cc(Cl)c2c(c1)-n1cccc1C(c1cc3ccccc3o1)=NC2 [Compound 120] | 4.86 |
| Cc1ccc2oc(C3=NCc4c(Cl)cccc4-n4cccc43)cc2c1 [Compound 134] | 4.50 |
| Clc1ccc2c(c1)-n1cccc1C(c1cnc3ccccc3c1)=NC2 [Compound 206] | 5.33 |

Measured Inf. A: Sporothrix schenkii B62482, pIC50 of Fc1cc(F)c2c(c1)-n1cccc1C(c1ccc3sccc3c1)=NC2 [Compound 176] : 5.70

Data point: Cc1cccc2cc(C3=NCc4ccccc4-n4cccc43)oc12 [Compound 130] ; Inf. A: Sporothrix schenkii B62482, pIC50 = 5.50

// Inf. A: Sporothrix schenkii B62482, pIC50 lookup, compound = Clc1ccc2oc(C3=NCc4c(Cl)cccc4-n4cccc43)cc2c1 [Compound 121] , result: 6.11

The recorded Inf. A: Sporothrix schenkii B62482, pIC50 for Clc1ccc2c(c1)-n1cccc1C(c1ccc3ncsc3c1)=NC2 [Compound 185] is 5.28

Summary for this compound, Cc1cccc2c1-n1cccc1C(c1cc3ccccc3s1)NC2.Cl (racemic) [Compound 55] : Inf. A: Sporothrix schenkii B62482, pIC50 is 5.04

Lab book: Inf. A: Sporothrix schenkii B62482, pIC50 of Cl.c1ccc2c(c1)CNC(c1cc3ccccc3s1)c1cccn1-2 (racemic) [Compound 52] noted as 5.40

Reported Inf. A: Sporothrix schenkii B62482, pIC50 ( Clc1ccc2c(c1)-n1cccc1C(c1ccc3sccc3c1)=NC2 [Compound 173] ) = 5.70

====

# Test system: Trichophyton rubrum
# test description: Antifungal activity in vitro, resazurin growth inhibition: Trichophyton rubrum (B68183)
# Type: cell-based
measurement name: Inf. C: Trichophyton rubrum B68183, pIC50
The reply should be a number, written without any unit.

Example compounds with recorded Inf. C: Trichophyton rubrum B68183, pIC50:
| compound | numeric value |
| --- | --- |
| Cc1ncc(C2=NCc3c(C)cccc3-n3cccc32)cn1 [Compound 99] | 4.89 |
| COc1ccc2oc(C3NCc4ccc(Cl)cc4-n4cccc43)cc2c1.Cl (racemic) [Compound 45] | 5.09 |
| Cc1nc2cc(C3=NCc4c(Cl)cccc4-n4cccc43)ccc2s1 [Compound 191] | 6.18 |

Form field, Inf. C: Trichophyton rubrum B68183, pIC50 with Trichophyton rubrum, item CCc1nc(C2=NCc3c(Cl)cc(Cl)cc3-n3cccc32)cs1 [Compound 65] : 5.19

Observed Inf. C: Trichophyton rubrum B68183, pIC50, Trichophyton rubrum, Cc1nc2ccc(C3NCc4c(Cl)cccc4-n4cccc43)cc2o1.Cl (racemic) [Compound 50] : 4.49
